Origin of values: PubChem BioAssay (NCI)

System: TK-10 renal
Protocol Summary: NCI tumour cell line growth inhibition, 48 h
Please mark Met if the recorded TGI is equal to or greater than 40 µM, and Not met if it falls below.

Field: example entries. Status: answers known.
Compound	Assay Target	Cat
O=[N+]([O-])c1ccc(C[P+]2(c3ccccc3)CCCCC2)cc1	TK-10 renal	Met
COC(=O)/C=C(/C=C1/C(C#N)=C(N)N(c2ccc(Cl)cc2)C1(C)/C(=C\C(=O)OC)C(=O)OC)C(=O)OC (stereo not given)	TK-10 renal	Met
CSC1=Nc2c(c(C)c(C)n2COC(CO)CO)C2=NC(=O)CN12	TK-10 renal	Met
O=CC(I)=C(c1ccccc1)c1ccccc1	TK-10 renal	Met

Please look at the following compound next.
Enquiry: For this compound, is measured TGI 40 µM or higher? CC(=O)O[C@H]1C(=O)[C@@]2(C)C([C@H](OC(=O)c3ccccc3)[C@]3(O)C[C@H](OC(=O)[C@H](O)[C@@H](NC(=O)c4ccccc4)c4ccccc4)C(C)=C1C3(C)C)[C@]1(OC(C)=O)CO[C@@H]1C[C@@H]2O (stereo not given in full)
Return: Met
